meta.source: the EternaBench riboswitch data

Overview of reported apparent Kd across a group of sequences:
System: MS2 coat protein
assay_info: apparent Kd, MS2 coat protein; higher = weaker binding; RNA-MaP array; tryptophan 2.4 mM where present
condition_description: ligand present: tryptophan; designed as: OFF switch for tryptophan
I only need the number, in µM, no unit after it.

- construct_sequence: "GGCCCGGACUUGGAAUGGGUGUUUCCCUCACGAGGACCGGUACGGCCGCCACUCGAAGACAUGAGGAUCACCCAUGUAGUCGACA"
  metric_name: "apparent Kd"
  experimental_result: 0.0125
- construct_sequence: "AGAUUCGACACGGCCGCCACUUUCAGUGGCUGGUGUCAUGGUGCACAUGAGGAUCACCCAUGUGGAAGGACCGGGUGUUGAGUCU"
  metric_name: "apparent Kd"
  experimental_result: 0.0584
- construct_sequence: "CGUAUUGGAAACAGUACGAGUGAUCCGGUCCGAGGACCGGUACGGCCGCCACUCGAAAUAAAUAAACAUGAGGAUCACCCAUGUA"
  metric_name: "apparent Kd"
  experimental_result: 0.0284
- construct_sequence: "UAACAUGAGGAUCACCCAUGUAUACUAAGUCGAGGACCGGUACGGCCGCCACUCGAAAUUGAAGAAUUGGCGGUAAAUGUAAGUA"
  metric_name: "apparent Kd"
  experimental_result: 0.0125
- construct_sequence: "GAGCGCGUGGACUGGCGUGCUCCGCUCCGUCGAGGACCGGUACGGCCGCCACUCGACAUGAGGAUCACCCAUGUGUGCGCUCGCG"
  metric_name: "apparent Kd"
  experimental_result: 0.0963
- construct_sequence: "GGGUCAGGCGCGGCCGCCACUGCGGUGAUGUGACAUGAGGAUCACCCAUGUUGUCAUGUGGCACAUAGGACCGGGCGCCUGGCCC"
  metric_name: "apparent Kd"
  experimental_result: 0.0316
- construct_sequence: "AUAAUUGGGUUAAUUAGUUUUAGGUCCAGUCGAGGACCGGUACGGCCGCCACUCGUUCCGAGAUACAUGAGGAUCACCCAUGUUA"
  metric_name: "apparent Kd"
  experimental_result: 0.0341
- construct_sequence: "AAUAAUAAGAAUAACGUACCAGGUGAUCAACGAGGACCGGUACGGCCGCCACUCGAAACAUGAGGAUCACCCAUGUAAUAACAAU"
  metric_name: "apparent Kd"
  experimental_result: 0.0583

response.value for "GUUGGAUACUCGGCCGCCACUGAGAGAGUCAUGUGAACAUGAGGAUCACCCAUGUAAUAUAUAUACAGGACCGGGAGUGUUGUAA" (field: apparent Kd) = 0.0168

Measured apparent Kd of "GGCACAUAGUCGGCCGCCACUAGGGUGUAGUGGAAUAACAUGAGGAUCACCCAUGUAUUUGGGACUAGGACCGGGACUAUGUGCC" : 0.02

---

Test system: MS2 coat protein
assay_info: apparent Kd, MS2 coat protein; higher = weaker binding; RNA-MaP array
condition_description: designed as: ON switch for flavin mononucleotide; no ligand
metric_name: apparent Kd (nM)
// note: answer is a bare numeric in nM

- construct_sequence: "GAGUACUGGUUAGGGAGAAAUACAUGAGGAUCACCCAUGUCCAGAAGGAUUCAGUAAGUGCCGGAAUAGGAUAUGGAACUAAAA"
  study_target: "MS2 coat protein"
  experimental_result: 246

Readout apparent Kd for "UAAGGACUUAUAGGAUAUGCAAACAUGAGGAUCACCCAUGUGAACCACGAAAUGACGCAGAAUAAGCAGAAGGAUAGUACGUAC" , test system MS2 coat protein, was 32.7

---

Listed below: apparent Kd values for each entry.
Test system: MS2 coat protein
assay_info: apparent Kd, MS2 coat protein; higher = weaker binding; RNA-MaP array; FMN 200 µM where present
condition_description: ligand present: flavin mononucleotide; designed as: OFF switch for flavin mononucleotide
The answer is to be given in nM; state only the numeric part.

Sample records with apparent Kd:
- construct_sequence: "GGUCCACAUGAGGAUCACCCAUGUUAGGAUAUCUCGCCCGAGCCCAUAUGGGCCAGGCAGAGAAGGAAUGUGAA"
  experimental_result: 23.5
- construct_sequence: "AUAAUUUUAUAUAUCUUAUUUAUCAGAAGGCAUAACAUGAGGAUCACCCAUGUAUAUUAUAGUUAUGAGGAUAUGAUUUAGUUA"
  experimental_result: 8.85
- construct_sequence: "CGUAUGAUGUCAGGAUAUGACGCUGAGAGCACGUCAGAAGGGACAUGAGGAUCACCCAUGUUGGGCUAAUGAAGCUAUGGCACU"
  experimental_result: 43.5
- construct_sequence: "CUUUUGUGAGGAUAUCAGUAGUAAAAUAAUAAAAUAACUACUGAGAAGGCACAUGAGGAUCACCCAUGUUCCUC"
  experimental_result: 161
- construct_sequence: "CGUAUGUCAGGAUAUGCGUAAGCCGGUCAGGGCGAGCGGCAGCAGAAGGGACAUGAGGAUCACCCAUGUUCGGG"
  experimental_result: 47.8

Record summary for "UUGUUAAAUGAAGGAUAUACUUAACAUGAGGAUCACCCAUGUGGUGUUGUGAGUGAGUGAGUUUAGUAGAAGGUCAAUUCUUUU" : reported apparent Kd = 232

// recorded apparent Kd for "UAUUAGUAAGGAUAUCCUUGCAUGGACGAAAGUCCAUGCAAGGAGAAGGUACAUGAGGAUCACCCAUGUUCAUU" : 17.9

Lab note: measured apparent Kd of "AUCAGCUCGUCAGGAUAUACGUCACUGCGUCAGCAGUGUUGUAAGAUCACAUGAGGAUCACCCAUGUAGAAGGGACGAGCUGAU" was 10.2

Entry under test: "UCUUAUCUAGGAUAUCCACCUCCUCACAUGAGGAUCACCCAUGUGCAGAACAACGGUCUCGGAGAAGGAGGUAUUG" . Its apparent Kd was 25.3

---

System: MS2 coat protein
assay_info: apparent Kd, MS2 coat protein; higher = weaker binding; RNA-MaP array
condition_description: ligand present: theophylline; designed as: ON switch for theophylline
Record rule met whenever apparent Kd is at 20 nM or higher; record rule not met when lower.

Solved cases (3 shown):
- construct_sequence: "GCACAACAUGAGGAUCACCCAUGUCGAGAUACCAGAACAUAUAUAUUCCCUUGGCAGCUCACACCUUUAAUGUAAAAUUCUUUGG"
  cat: "rule not met"
- construct_sequence: "UAGUAACAUGAGGAUCACCCAUGUCCGGAUACCAGACAUAUACCAGUCCCUUGGCAGCCGCCAGUUAAAAUCUAACACAAAAGUU"
  cat: "rule met"
- construct_sequence: "AUGGAACAUGAGGAUCACCCAUGUGAUGAUACCAGAUUAACGCUUAUCCCUUGGCAGCAUGUCCGCCCUCAACCUGUGGCGUAUU"
  cat: "rule met"

## Input // inclusive: apparent Kd at least 20 nM? input: "GGAGGCCUUAGGGAUACCAGCUAAGUUGAGUACAUGAGGAUCACCCAUGUGUUCCCAGAGAGCCCUUGGCAGCCCUCAUCCGUUC"
## Output rule not met

## Input Record "AUAACACAUGAGGAUCACCCAUGUAAGGAUACCAGUUUCUGAUUAAACCCUUGGCAGCCUAGAGAUAGUCAUGUAAUAACGGCGA" ; criterion: apparent Kd no lower than 20 nM. Met?
## Output rule not met

---

Catalogue of sequences with associated apparent Kd
Test system: MS2 coat protein
assay_info: apparent Kd, MS2 coat protein; higher = weaker binding; RNA-MaP array; theophylline 2 mM where present
condition_description: designed as: ON switch for theophylline; no ligand
Report as a plain number; the unit nM is understood.

// known answers, use as guide
- construct_sequence: "CCGAACAUGAGGAUCACCCAUGUUAGGGAUACCAGCCCAGACAUGGGCCCUUGGCAGCUCUAUAGCUGACGAAAGUCAGCAUCGG"
  study_target: "MS2 coat protein"
  apparent Kd (nM): 58.5
- construct_sequence: "UAUACAUGGGAUACCAUGGAUCCGAGUGAUACCAGCUAUCCGAAUAGCCCUUGGCAGCACAGUACAUGAGGAUCACCCAUGUAUA"
  study_target: "MS2 coat protein"
  apparent Kd (nM): 27.5
- construct_sequence: "UGUAACAUGAGGAUCACCCAUGUAAGUGAUACCAGAUAAGUAGUAGUCCCUUGGCAGCAUAUUGGGAAAGUGUAUAGUCUAUAUU"
  study_target: "MS2 coat protein"
  apparent Kd (nM): 57.2
- construct_sequence: "AAACUAACGAGAGGAAACCUCGAGGGUGAUACCAGCACAUAAGGGUGCCCUUGGCAGCACCGACGUACAUGAGGAUCACCCAUGU"
  study_target: "MS2 coat protein"
  apparent Kd (nM): 162

Now, please, on to the next sequence.
Query "AUCGUACCUGAUGAUACCAGCAUGUGCUCGUAACAUGAGGAUCACCCAUGUGAUCAGUAAUGCCCUUGGCAGCAUGAUCGGUACA" yields apparent Kd of 57.9
